compounds and their reported IC50
# tgt: EGFR (Homo sapiens)
# Sequence (P00533 25-1210): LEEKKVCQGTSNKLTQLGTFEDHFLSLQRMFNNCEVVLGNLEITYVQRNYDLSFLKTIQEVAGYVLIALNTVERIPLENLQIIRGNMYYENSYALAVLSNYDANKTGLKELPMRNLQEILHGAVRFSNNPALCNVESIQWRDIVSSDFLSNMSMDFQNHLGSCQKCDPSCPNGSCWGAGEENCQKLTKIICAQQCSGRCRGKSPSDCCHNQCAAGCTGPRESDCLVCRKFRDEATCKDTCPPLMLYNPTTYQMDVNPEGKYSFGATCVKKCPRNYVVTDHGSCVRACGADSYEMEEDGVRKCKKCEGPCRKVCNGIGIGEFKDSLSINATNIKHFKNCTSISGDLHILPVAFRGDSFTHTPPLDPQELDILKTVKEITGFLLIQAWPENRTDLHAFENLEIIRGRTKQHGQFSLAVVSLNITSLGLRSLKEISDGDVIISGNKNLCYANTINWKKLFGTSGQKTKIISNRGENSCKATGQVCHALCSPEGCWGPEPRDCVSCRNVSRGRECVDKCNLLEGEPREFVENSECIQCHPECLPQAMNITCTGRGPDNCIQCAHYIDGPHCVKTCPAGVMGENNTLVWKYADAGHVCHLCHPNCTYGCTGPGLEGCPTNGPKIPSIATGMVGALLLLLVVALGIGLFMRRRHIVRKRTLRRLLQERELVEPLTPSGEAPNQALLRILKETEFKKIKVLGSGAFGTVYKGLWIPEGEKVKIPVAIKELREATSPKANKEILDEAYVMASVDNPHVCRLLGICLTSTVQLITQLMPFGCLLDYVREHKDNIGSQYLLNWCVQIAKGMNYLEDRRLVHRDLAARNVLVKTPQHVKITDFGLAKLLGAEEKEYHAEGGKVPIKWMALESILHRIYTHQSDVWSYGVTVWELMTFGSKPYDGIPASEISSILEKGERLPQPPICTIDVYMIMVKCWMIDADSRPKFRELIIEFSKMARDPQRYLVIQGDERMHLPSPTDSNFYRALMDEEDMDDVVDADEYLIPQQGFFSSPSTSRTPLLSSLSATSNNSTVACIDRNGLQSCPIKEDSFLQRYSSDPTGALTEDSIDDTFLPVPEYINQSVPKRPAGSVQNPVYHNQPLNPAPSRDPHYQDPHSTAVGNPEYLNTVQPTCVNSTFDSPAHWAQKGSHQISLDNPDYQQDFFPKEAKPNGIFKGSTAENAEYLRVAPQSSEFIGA
# assay_overview: ADP-Glo kinase assay, EGFR
# Type: biochemical
# Parameters: purchased BPS Bioscience (assay run externally by the vendor)
# condition_info: 10 µM ATP/0.2 mg/ml Poly-Glu-Tyr; read-out: EGFR IC50 (dose-response curve, supplement)
Lab book: enter the figure in nM, no units written.

Worked cases, answers included:
Brc1ccc(Nc2ncnc3[nH]ccc23)cc1 [Compound 10] = 125
Cc1cccc(Nc2ncnc3[nH]ccc23)c1 [Compound 12] = 19.9
Cc1ccc(Nc2ncnc3[nH]ccc23)cc1 [Compound 9] = 693

Query block: Check the records and state IC50 for Clc1ccccc1Nc1ncnc2[nH]ccc12 [Compound 14]
Result block: 471

Query block: Check the records and state IC50 for c1ccc(Oc2ccc(Nc3ncnc4[nH]ccc34)cc2)cc1 [Compound 17]
Result block: 110

Query block: Check the records and state IC50 for Brc1cccc(Nc2ncnc3[nH]ccc23)c1 [Compound 2]
Result block: 3.8

Query block: Check the records and state IC50 for Clc1ccc(Nc2ncnc3[nH]ccc23)cc1 [Compound 4]
Result block: 84.5

Query block: Check the records and state IC50 for c1ccc(Nc2ncnc3[nH]ccc23)cc1 [Compound 1]
Result block: 253

Query block: Check the records and state IC50 for c1ccc(Cc2ccc(Nc3ncnc4[nH]ccc34)cc2)cc1 [Compound 18]
Result block: 63.3

Query block: Check the records and state IC50 for FC(F)(F)c1cccc(Nc2ncnc3[nH]ccc23)c1 [Compound 13]
Result block: 43.9

Query block: Check the records and state IC50 for Nc1nc(Nc2cccc(Br)c2)c2cc[nH]c2n1 [Compound 8]
Result block: 357

Query block: Check the records and state IC50 for COc1ccc(Nc2ncnc3[nH]ccc23)cc1 [Compound 6]
Result block: 3000

Query block: Check the records and state IC50 for Fc1cc(Nc2ncnc3[nH]ccc23)ccc1Cl [Compound 3]
Result block: 5.9

====

# tgt: EGFR (Homo sapiens)
# assay_overview: ADP-Glo kinase assay, EGFR
# Assay type: biochemical
# Parameters: purchased BPS Bioscience (assay run externally by the vendor)
# condition_info: Log[nM] 1.5; Set3
attribute_measured: EGFR % Activity Set3 (%)
Lab book: enter the figure in %, no units written.

Clc1ccc(Nc2ncnc3[nH]ccc23)cc1 = 64
Clc1cccc(Nc2ncnc3[nH]ccc23)c1 = 20

Let us move to another entry and its EGFR % Activity Set3.
Query block: Check the records and state EGFR % Activity Set3 for c1ccc(Oc2ccc(Nc3ncnc4[nH]ccc34)cc2)cc1
Result block: 83

====

# tgt: EGFR (Homo sapiens)
# assay_overview: ADP-Glo kinase assay, EGFR
# Format: biochemical
# Set-up: purchased BPS Bioscience (assay run externally by the vendor)
# condition_info: Log[nM] 1.5; Set1
attribute_measured: EGFR % Activity Set1

Nc1nc(Nc2cccc(Br)c2)c2cc[nH]c2n1 [Compound 8] = 93%
Brc1cccc(Nc2ncnc3[nH]ccc23)c1 [Compound 2] = 11%
Cc1cccc(Nc2ncnc3[nH]ccc23)c1 [Compound 12] = 34%
FC(F)(F)c1cccc(Nc2ncnc3[nH]ccc23)c1 [Compound 13] = 54%

Query block: Check the records and state EGFR % Activity Set1 for c1ccc(Nc2ncnc3[nH]ccc23)cc1 [Compound 1]
Result block: 92%

Query block: Check the records and state EGFR % Activity Set1 for Clc1ccc(Nc2ncnc3[nH]ccc23)cc1Br [Compound 7]
Result block: 12%
